- subjectOfTest: SFRP-1 (Homo sapiens)
- Sequence (Q8N474 32-314): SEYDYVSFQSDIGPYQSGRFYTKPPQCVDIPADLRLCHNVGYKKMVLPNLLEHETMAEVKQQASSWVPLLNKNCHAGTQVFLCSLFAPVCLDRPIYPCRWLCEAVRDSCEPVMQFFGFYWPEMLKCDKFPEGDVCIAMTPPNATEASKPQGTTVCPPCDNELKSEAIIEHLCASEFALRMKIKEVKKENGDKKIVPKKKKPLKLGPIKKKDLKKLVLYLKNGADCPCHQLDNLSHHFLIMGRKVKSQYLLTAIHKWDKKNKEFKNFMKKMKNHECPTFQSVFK
- methodDescription: Cell-based assay for in vitro measurement of SFRP-1/SARP2 antagonist activity (U2OS cells co-transfected with 16x TCF-tk-Luciferase reporter, Wnt and hSFRP-1);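 further: U2OS cells co-transfected with a TCF-tk luciferase reporter, a Wnt vector, hSFRP-1 or empty vector and CMV-βgal, luciferase luminescence read in cell lysates alongside βgal activity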
- assaySetup: U2OS, read-out: Fold Induction with SFRP-1, U2OS cells, single dose 10 μM, luciferase reporter, fold induction over SFRP-1 control
Answer each item with its documented fold induction at 10 µM.
Answer as a number with no unit attached.

Input: Can you share its fold induction at 10 µM? I mean this compound: CC(C)(C)OC(=O)N1CCC(NS(=O)(=O)c2cc(S(=O)(=O)c3ccccc3)ccc2C(F)(F)F)CC1 [Example 687]
Output: 3.2

Input: Need fold induction at 10 µM of O=C(c1ccc(C(F)(F)F)cc1)N1CCC(NS(=O)(=O)c2cc(S(=O)(=O)c3ccccc3)ccc2Cl)CC1 [Example 658] , thanks.
Output: 2.6

Input: # lookup: fold induction at 10 µM of CC(C)c1ccc(S(=O)(=O)c2ccc(F)cc2)cc1S(=O)(=O)NC1CCN(C(=S)Nc2ccccc2F)CC1 [Example 691]
Output: 2.8

Input: // lookup fold induction at 10 µM for Cc1cc(C)c(S(=O)(=O)c2ccccc2)cc1S(=O)(=O)NCC(O)c1cccnc1 (stereo not drawn) [Example 737]
Output: 2.4

Input: Request the reported fold induction at 10 µM associated with O=S(=O)(NC1CCN(c2ccc(C(F)(F)F)cc2)CC1)c1cc(S(=O)(=O)c2ccccc2)ccc1C(F)(F)F [Example 763]
Output: 2.7

Input: Request the reported fold induction at 10 µM associated with O=C(O)c1cccc(N2CCC(CNS(=O)(=O)c3cc(S(=O)(=O)c4ccccc4)ccc3C(F)(F)F)CC2)c1 [Example 956]
Output: 4.3

Input: Requested read-out: fold induction at 10 µM. Entry: Cc1ccc(S(=O)(=O)c2ccc(F)cc2)cc1S(=O)(=O)NC1CCN(C(=O)OC(C)(C)C)CC1 [Example 789]
Output: 1.5

Input: Name the reported fold induction at 10 µM value associated with the compound CC(C)c1ccc(S(=O)(=O)c2ccccc2)cc1S(=O)(=O)NCC(O)c1ccccn1 (stereo not drawn) [Example 728]
Output: 3.1

Input: Give the measured fold induction at 10 µM of O=C(NCCNS(=O)(=O)c1cc(S(=O)(=O)c2ccccc2)ccc1C(F)(F)F)c1ccccc1 [Example 770] .
Output: 1.7

Input: Bench note: what fold induction at 10 µM did O=S(=O)(NCCc1cccnc1)c1cc(S(=O)(=O)c2ccccc2)ccc1C(F)(F)F [Example 677] show?
Output: 3.8

Input: Record request: fold induction at 10 µM value, item CC(C)(C)OC(=O)N1CC[C@@H](NS(=O)(=O)c2cc(S(=O)(=O)c3ccccc3)ccc2C(F)(F)F)C1 [Example 795]
Output: 3.8

Input: Would you mind telling me what fold induction at 10 µM value was observed for CC(C)c1ccc(S(=O)(=O)c2ccc(F)cc2)cc1S(=O)(=O)NC1CCN(C(=S)NCCN2CCOCC2)CC1 [Example 698] ?
Output: 3

Input: Can you look up the measured fold induction at 10 µM of CC(C)c1ccc(S(=O)(=O)c2ccc(F)cc2)cc1S(=O)(=O)NC1CCSCC1 [Example 815] for me?
Output: 2.2

Input: So what's the measured fold induction at 10 µM for this one? COc1ccc(CCNS(=O)(=O)c2cc(S(=O)(=O)c3ccccc3)ccc2C(F)(F)F)cc1 [Example 939]
Output: 2.2

Input: Data request, read-out fold induction at 10 µM, for O=S(=O)(N[C@@H]1CCCNC1)c1cc(S(=O)(=O)c2ccccc2)ccc1C(F)(F)F [Example 791]
Output: 3.8
